# run description: HepG2 cytotoxicity, primary screen, cytotoxicity control for P. falciparum antimalarial project, cell-based, ATP luminescence (AID 2303)
# run conditions: HepG2 viability, 24-48 h, at 10 µM, hits give high values
So basically, if inhibition comes in under 20% it's condition met, and if it's 20% or more it's condition not met.

[in] Say whether its inhibition is strictly beneath 20%. Entry: c1cc(-c2ccc(CN3CCCC3)cc2)cc(-c2nc3ccccc3[nH]2)c1
[out] condition not met

[in] # check: inhibition < 20% for N#Cc1cccc(CN2CCCN(Cc3cccc(C(=O)Nc4ccc(Cl)cc4)c3)CC2)c1
[out] condition not met

[in] For this compound, is inhibition lower than 20%? COc1ccc(C(=O)NC(Nc2ccc([N+](=O)[O-])cc2)C(Cl)(Cl)Cl)cc1 (stereo not given)
[out] condition met

[in] Please let me know if CCOc1cc(C)ccc1C1CCN(CCCCNC(=O)c2cccc(-c3ccc(C(F)(F)F)cc3)c2)CC1 shows inhibition below 20%.
[out] condition not met

[in] Hello, I'm reviewing records and need to know if inhibition of COc1ccc(C(=O)NCCCCN2CCC(c3ccc4c(c3OC)CCCC4)CC2)cc1-c1ccc(C(F)(F)F)cc1 is below 20%. Could you check?
[out] condition not met

[in] Does this compound meet the criterion inhibition < 20%? CCCC(=O)Nc1ccc(OCCCCN(CC(C)(C)C)c2ccc(C#N)c(C(F)(F)F)c2)cc1
[out] condition met

[in] Bench note: check whether COc1cc2ncnc(Nc3ccc(Br)c(Cl)c3)c2cc1OC shows inhibition below 20%
[out] condition not met

[in] Lab note: confirm whether the reported inhibition for this compound is below 20%, equality not counting. compound: COc1ccc2nccc([C@@H](O)CN3CCC(NCc4cc5ccccc5o4)CC3)c2c1
[out] condition met

[in] Dear colleague, could you confirm whether inhibition of Cc1cc(NN=Cc2ccccc2[N+](=O)[O-])c2cccc(C)c2n1 falls below 20%? Thanks.
[out] condition met

[in] A record lists COc1cccc(C=CC(=O)N(CCN)Cc2ccccc2)c1 . Is its inhibition below 20%?
[out] condition met

src = PubChem BioAssay
